Hey, just so you know, these numbers are from ChEMBL document CHEMBL1201862.

system: SK-OV-3; experiment: NCI tumour cell line growth inhibition, 48 h
Calls of active or inactive are those of the source. No stated cut-off is given here; in the data, active = GI50 up to about 1.1 µM and inactive = higher.
Classes used: active, inactive

1) CCC1(O)C[C@H]2CN(CCCc3c([nH]c4ccccc34)[C@@](C(=O)OC)(c3cc4c(cc3OC)N(C)C3[C@](O)(C(=O)OC)[C@H](OC(C)=O)[C@]5(CC)C=CCN6CC[C@]43[C@H]65)C2)C1 (stereo not given in full): active
2) COc1ccc2c(c1)[n+]([O-])c(/C(C)=N/NC(N)=S)c(C)[n+]2[O-]: inactive
3) O=C(N/N=C1\C(=O)N(c2nccs2)C(=O)C(=O)C1c1nc2ccccc2s1)c1ccccc1O (stereo not given): inactive
4) CCC1CN2CCC3(c4ccccc4)CC(C(=O)OC)=CC1C23 (stereo not given): inactive
5) COC(=O)c1c(O)ccc2c1c1c(n2Cc2ccccc2Cl)C(=O)c2ccccc2C1=O: inactive
6) CC1(C)CC2(C)CC1CC2O (stereo not given): inactive
7) O=C1CSC(c2ccccc2O)N1c1ccc2c(c1)Oc1c(Cl)c3c(c(Cl)c1=N2)Oc1cc(N2C(=O)CSC2c2ccccc2O)ccc1N=3 (stereo not given): inactive
8) Oc1ccccc1-c1n[nH]c(-c2ccccc2O)n1: inactive
9) O=c1o[nH]/c(=N/c2ccccc2)n1-c1ccccc1: inactive
10) COc1ccc2c([nH]c3cc(O)c(C)cc32)c1CC=C(C)C: inactive

====

tested on: IGROV-1; experiment: NCI tumour cell line growth inhibition, 48 h
Active and inactive are the calls of the source. Rule as the data show it: active = GI50 up to about 1.1 µM and inactive = higher.
Classes used: YES = active, NO = inactive

1) COc1ccc2c(NCCCCCCNc3c4ccccc4nc4cc(OC)ccc34)c3ccccc3nc2c1: YES
2) CC(=O)C1C(=O)C(=O)N(c2ccc(Cl)c(Cl)c2)C1=O (stereo not given): NO
3) C1=CN2C[n+]3ccc4ccccc4c3N=C2c2ccccc21: NO
4) Cc1ccc(S(=O)(=O)C2=c3ncccc3=C3C(=O)c4ccccc4C(=O)C32)cc1 (stereo not given): NO
5) O=C1C(Cl)=C(N2CCN(C3=C(Cl)C(=O)c4ccccc4C3=O)CC2)C(=O)c2ccccc21: NO
6) O=C(O)Cn1ccnc1[N+](=O)[O-]: NO
7) CCCCCCSC[C@H](OC(C)=O)[C@@H](OC(C)=O)[C@@H](OC(C)=O)[C@@H](COC(C)=O)OC(C)=O: NO
8) CCN1CCN(c2nc3ccccc3nc2C(=O)c2ccc(OC)c(OC)c2)CC1: NO
9) Oc1cc(O)c2c(-c3c(O)c(-c4ccc(O)c(O)c4)[o+]c4cc(O)cc(O)c34)c(O)c(-c3ccc(O)c(O)c3)[o+]c2c1: NO
10) C#CCOC(=O)[C@@H](C)c1ccc2cc(OC)ccc2c1: NO
11) NC(Cc1ccc(O)c(O)c1)P(=O)(O)O (stereo not given): NO
12) O=C(N/N=C1\C(=O)N(c2nccs2)C(=O)C(=O)C1c1nc2ccccc2s1)c1ccccc1O (stereo not given): NO
13) CCOC(=O)C(CC(C)C)NC(=O)C(Cc1ccc(N(CCCl)CCCl)cc1)NC(C)=O (stereo not given): NO
14) COc1ccc(Nc2[nH]c(C(C)=O)c(N)c2C(=S)Nc2ccccc2)cc1: NO
15) O=C(CN(C(=O)OC12CC3CC(CC(C3)C1)C2)C(=O)OC12CC3CC(CC(C3)C1)C2)Oc1ccc([N+](=O)[O-])cc1: NO
16) CN=[S+]([O-])(c1ccccc1)c1ccccc1: NO
17) Cc1ccc(SCC(CF)OC(C)n2cnc3c(O)nc(N)nc32)cc1 (stereo not given): NO
18) CC(=O)N1C=Cc2c(c(C)c3c([nH]c4ccccc43)c2C)C1: NO
19) Cc1ccc(SC(CCC(Sc2ccc(C)cc2)Sc2ccc(C)cc2)Sc2ccc(C)cc2)cc1: NO
20) NC(=S)N/N=C(\CCC(=O)Nc1ccccc1[N+](=O)[O-])CC(=O)c1ccco1: NO

====

test system: HOP-92; experiment: NCI tumour cell line growth inhibition, 48 h
The source made the active and inactive calls. No stated cut-off is given here; in the data, active = GI50 up to about 1.1 µM and inactive = higher. Bridge positions count the residues as written; N and C are the ends. Square brackets hold non-standard residues; d marks the D form. Peptide text beside a SMILES is read from it. I, II: the chains in the order shown. * marks the point of attachment. Quinoxaline2carbonyl = O=C(c1cnc2ccccc2n1)*; NMeV = CN[CH](C(=O)O)C(C)C; NMeC = CN[CH](CS)C(=O)O
Classes used: active, inactive

1) COC(=O)C1(C)OC(C)=NC1(C(=O)OC)C(=O)OC (centres undefined): inactive
2) CC(=O)/C(=C/N1CCNC1=S)C(=O)Nc1ccccc1C: inactive
3) CCOC1=C/C(=N\Nc2ccc([N+](=O)[O-])cc2)CCC1: inactive
4) O=C(CCC(=O)N/N=C/c1ccccc1O)N/N=C/c1ccccc1O: inactive
5) Cc1ccc(C(=O)CCl)o1: inactive
6) CCN1CCN(c2nc3ccccc3nc2C(=O)c2ccc(OC)c(OC)c2)CC1: inactive
7) O=[N+]([O-])C(=C(\Cl)NCCO)/C(Cl)=C(/Cl)Br: inactive
8) O=C(CC(c1ccccc1)c1c(O)c2ccccc2oc1=O)c1ccccc1 (centres undefined): inactive
9) C1COC(NC(C2CC2)C2CC2)=N1: inactive
10) CC1NC(=O)C(NC(=O)c2cnc3ccccc3n2)COC(=O)C(C(C)C)N(C)C(=O)C2CSSCC(C(=O)N(C)C(C(C)C)C(=O)OCC(NC(=O)c3cnc4ccccc4n3)C(=O)NC(C)C(=O)N2C)N(C)C1=O (centres undefined) (I: Quinoxaline2carbonyl-SA[NMeC][NMeV] / II: Quinoxaline2carbonyl-SA[NMeC][NMeV]; ester I:1-II:C, I:C-II:1; disulfide I:3-II:3; configuration not given here): active
11) COc1ccc2nc(-c3ccc(OCc4ccccc4)cc3)ccc2c1: inactive
12) CCC1CN2CCC3(c4ccccc4)CC(C(=O)OC)=CC1C23 (centres undefined): inactive
13) COc1ccc(C(=O)OCC2OC(n3cnc4c(=S)nc[nH]c43)C(OC(=O)c3ccc(OC)cc3)C2OC(=O)c2ccc(OC)cc2)cc1 (centres undefined): inactive
14) C#CCOC(=O)[C@@H](C)c1ccc2cc(OC)ccc2c1: inactive
15) CCOC(=O)c1cn(CC)c2cc3c(cc2c1=O)SCS3: inactive
16) Cc1ccc2[nH]c3c(C)c4cc[n+](C)cc4c(C)c3c2c1: inactive
17) NNC(=O)/C(NC(=O)c1ccccc1)=C(\N)c1cccc([N+](=O)[O-])c1: inactive
18) CCOC(=O)/C=C(/C(=O)OCC)n1cc(C)c(=O)n(Cc2cn(CCCCOC(C)=O)nn2)c1=O: inactive
19) O=C(N/N=C1\C(=O)N(c2nccs2)C(=O)C(=O)C1c1nc2ccccc2s1)c1ccccc1O (centres undefined): inactive

====

tested on: OVCAR-4; test: NCI tumour cell line growth inhibition, 48 h
Calls of active or inactive are those of the source. Rule as the data show it: active = GI50 up to about 1.1 µM and inactive = higher.
Property Label: GI50

1. CCCCCCCC(=O)OC[C@@H](C[As](=O)(O)O)OC(=O)CCCCCCC: 11.9 µM (inactive)
2. O=C(NCCCCCCNC(=O)c1cccc2ccccc12)Nc1cccc2ccccc12: > 100 µM (inactive)
3. Nc1ccc(C2=N/C(=C\c3cccc(N)c3)C(=O)O2)cc1: > 100 µM (inactive)
4. Cc1ccc(SC(CCC(Sc2ccc(C)cc2)Sc2ccc(C)cc2)Sc2ccc(C)cc2)cc1: > 100 µM (inactive)
5. COC(=O)C(=O)C(C#N)c1nc2ccccc2s1 (stereo not given): > 100 µM (inactive)
6. CCCCOC(=O)C(=O)C(CC(C(=O)Cc1ccccc1)c1ccccc1)C(=O)C=C(C)C (stereo not given): > 100 µM (inactive)
7. NC1=NN(c2ccccc2)C(=O)C1C(=O)C(=O)Nc1ccc(Cl)cc1 (stereo not given): > 100 µM (inactive)
8. Cc1nc2c(nc1C)C(=O)C1=C(C2=O)C2C=CC1CC2: 1.93 µM (inactive)
9. COC(=O)c1nc(-c2ccc3c(n2)C(=O)C(=N)C(OC)=C3O)c(N)c(-c2ccc(OC)c(OC)c2O)c1C: 1.66 µM (inactive)
10. Cc1ccc(SCC(CF)OC(C)n2cnc3c(O)nc(N)nc32)cc1 (stereo not given): > 100 µM (inactive)

====

tested on: UACC-257; assay: NCI tumour cell line growth inhibition, 48 h
The source made the active and inactive calls. Cut-off read from the data, not from the text of the source: active = GI50 up to about 1.1 µM and inactive = higher.
Classes used: 1.0 (active), 0.0 (inactive)

1. NNC(=O)/C(NC(=O)c1ccccc1)=C(\N)c1cccc([N+](=O)[O-])c1: 0.0
2. COC(=O)[C@@H](Nc1ccccc1)[C@@]1(C(=O)OC)SC12c1ccccc1-c1ccccc12: 0.0
3. CC1(C)OCC(C2OC3OC(C)(C)OC3C2c2ccccc2)O1 (configuration not stated): 0.0
4. Nc1nc(N)c(/N=N/c2ccc(C(=O)O)c(O)c2)c(N)n1: 0.0
5. C/C(=N/NC(=S)N(C)C)c1ccccc1O: 0.0
6. CC(=O)c1cc2ccccc2[n+]([O-])c1N: 0.0
7. Clc1sc(Cl)c2c1[C@H](Cl)C[C@@H]2Cl: 0.0
8. O=S(O)c1cc(Cl)c(O)c(Cl)c1: 0.0
9. COc1cc(C)c2c(c1C=O)Oc1c(c(C)c(O)c3c1C(O)OC3=O)OC2=O (configuration not stated): 0.0
10. CC(C)(C)c1ccc(OCCOc2ccc(C(C)(C)C)cc2NC=O)c(NC=O)c1: 0.0
11. COc1ccc(Nc2[nH]c(C(C)=O)c(N)c2C(=S)Nc2ccccc2)cc1: 0.0
12. Cc1ccc(C(=O)CCl)o1: 0.0
13. CO[C@@]12C[C@@H](C)C3=CCC(C)=C3CC1=C(C)C(=O)O2: 0.0
14. Cc1cn(C2CC(N)C(CN)O2)c(=O)[nH]c1=O (configuration not stated): 0.0
15. CCC1CN2CCC3(c4ccccc4)CC(C(=O)OC)=CC1C23 (configuration not stated): 0.0
16. CCCN(CCC)C(=S)N/N=C/c1cccc(C)n1: 1.0
17. O=[N+]([O-])c1cccc(C2=NOC3C4CCC(C4)C23)c1 (configuration not stated): 0.0
18. C(=N\c1ccc(-c2cc(-c3ccccc3)nc3ccc4ccccc4c23)cc1)/c1ccccc1: 0.0
19. COc1cc(C2c3cc4c(cc3OC(Nc3ccccc3)C2C)OCO4)cc(OC)c1O (configuration not stated): 0.0
20. C=CC/N=C(\S)Nc1sc2c(c1C(=O)OCC)CC(C)CC2 (configuration not stated): 0.0
21. CC(C)[C@@H](C)CC[C@@H](C)C1CC=C2[C@@H]3CCC4C[C@@H](O[Si](C)(C)C(C)(C)C)CC[C@]4(C)C3CC[C@@]21C (some centres not stated): 0.0
22. Cc1ccc(O)c(C2=NNC(c3cccc(Cl)c3)C2)c1 (configuration not stated): 0.0
